Value source: ChEMBL document CHEMBL6153077

- Tgt: Vitamin D3 receptor (Homo sapiens) (UniProt P11473)
- Sequence (P11473 whole entry): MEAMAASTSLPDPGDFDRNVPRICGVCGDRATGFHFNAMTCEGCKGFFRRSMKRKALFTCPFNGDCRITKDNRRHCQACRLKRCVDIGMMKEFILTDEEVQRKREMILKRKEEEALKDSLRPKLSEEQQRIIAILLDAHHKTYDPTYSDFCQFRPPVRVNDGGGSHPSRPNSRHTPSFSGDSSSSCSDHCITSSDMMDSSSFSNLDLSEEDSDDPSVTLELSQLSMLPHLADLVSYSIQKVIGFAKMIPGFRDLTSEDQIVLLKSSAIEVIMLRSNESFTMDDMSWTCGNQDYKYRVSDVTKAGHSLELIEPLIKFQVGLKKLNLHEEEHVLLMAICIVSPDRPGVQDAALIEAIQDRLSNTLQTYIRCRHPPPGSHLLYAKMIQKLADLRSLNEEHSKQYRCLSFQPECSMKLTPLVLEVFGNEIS
- Assay: Binding affinity to full-length VDR (unknown origin) at 1 uM by fluorescence polarization assay relative to control
- Test parameters: filed as agonist
I'd appreciate it if you could supply Activity values for the items below.
One number for each entry, in %.

INSERT INTO assay_data (compound, reading) VALUES
  ('CCC(OC(=O)C1=C[C@@H](O)[C@@H](O)[C@H](O)C1)c1cccc(OCCCC(C)(C)O)c1 (stereo not given in full)', 84),
  ('C=CCC(O)(CC=C)CCCOc1cccc2c1CCCC2OC(=O)C1=C[C@@H](O)[C@@H](O)[C@H](O)C1 (stereo not given in full)', 51),
  ('CCn1cc(C(CC)(CC)c2ccc(OCC(O)CO)c(C)c2)cc1C(=O)NCC(C)(C)O (stereo not given)', 57),
  ('CCCC(OC(=O)C1=C[C@@H](O)[C@@H](O)[C@H](O)C1)c1cccc(OCCCC(C)(C)O)c1 (stereo not given in full)', 77);

List reported Activity for each of these compounds:
1. CC(C)(O)CCCOc1cccc2c1CCCC2OC(=O)C1=C[C@@H](O)[C@@H](O)[C@H](O)C1 (stereo not given in full)
2. CCC(O)(CC)CCCOc1cccc2c1CCCC2OC(=O)C1=C[C@@H](O)[C@@H](O)[C@H](O)C1 (stereo not given in full)

[69, 68]

List reported Activity for each of these compounds:
1. CC(C)(O)CCOc1cccc2c1CCCC2OC(=O)C1=C[C@@H](O)[C@@H](O)[C@H](O)C1 (stereo not given in full)
2. C=C1/C(=C\C=C2/CCC[C@]3(C)[C@@H]([C@H](C)/C=C/[C@@H](O)C4CC4)CC[C@@H]23)C[C@@H](O)C[C@@H]1O
3. CC(C)c1ccc(C(=O)COc2ccc(/C=C/C3=C[C@@H](O)[C@@H](O)[C@H](O)C3)c3c2CCCC3)cc1

1. 45
2. 100
3. 76

CCC(O)(CC)CCCCOc1ccc(C#CC2=C[C@@H](O)[C@@H](O)[C@H](O)C2)c2c1CCCC2 has a reported Activity of 49

* * *

- Tested on: LX-2
- Assay: Inhibition of HSC activation in TGF-beta1-treated human LX2 cells assessed as decrease in collagen-I level at 0.5 uM incubated for 24 hrs by Western blot analysis
- Format: functional, cell-based
The source made the active and inactive calls. No cut-off for these calls is given here.
Metric: inhibition

Field: example entries. Status: answers known.
INSERT INTO measurements (molecule, metric, reading) VALUES
  ('O=C(OC1CCCc2c(OCCCN3CCOCC3)cccc21)C1=C[C@@H](O)[C@@H](O)[C@H](O)C1 (stereo partly specified)', 'inhibition', 'inactive'),
  ('CCCC(OC(=O)C1=C[C@@H](O)[C@@H](O)[C@H](O)C1)c1cccc(OCCCC(C)(C)O)c1 (stereo partly specified)', 'inhibition', 'Active'),
  ('CCC(OC(=O)C1=C[C@@H](O)[C@@H](O)[C@H](O)C1)c1cccc(OCCCC(C)(C)O)c1 (stereo partly specified)', 'inhibition', 'Active'),
  ('CCC(OC(=O)C1=C[C@@H](O)[C@@H](O)[C@H](O)C1)c1cccc(OCCCC(O)(CC)CC)c1 (stereo partly specified)', 'inhibition', 'Active'),
  ('CCC(O)(CC)c1ccc(-c2ccc(COC(=O)C3=C[C@@H](O)[C@@H](O)[C@H](O)C3)s2)c(C)c1', 'inhibition', 'Active');

In the following, a different molecule is considered.
OC(COc1ccc(/C=C/C2=C[C@@H](O)[C@@H](O)[C@H](O)C2)c2c1CCCC2)c1ccccc1 (stereo partly specified) has a reported inhibition of inactive
